# MEASUREMENT NOTES: Cytotoxicity MTT reduction assay
# Format: cell-based
# CONDITION: human; 50% cell death, THP-1 cells, MTT, 18-24 hours
No end group written: not given here. *: point of attachment. X1 = OC[C@H]1O[C@@H](O[C@H]2[C@H](O)[C@@H](O)[C@H](*)O[C@@H]2CO)[C@H](O)[C@@H](O)[C@@H]1O

| SUBSTANCE | IC50, µM |
| --- | --- |
| MASKRDCNLMKACCAGQAVTYAIHSLLNRLGGDC(X1)SDPAGCNDIVRKYCK (cysteines drawn unpaired) [SEQ ID NO: 40] | 315 |
| MASKRDCNLMKATCAGQAVTYAIHSLLNRLGGDS(X1)SDPAGCNDIVRKYCK (cysteines drawn unpaired) [SEQ ID NO: 10] | 249 |
| MASKRDCNLMKACCAGQAVTYAIHSLLNRLGGDS(X1)SDPAGCNDIVRKYCK (cysteines drawn unpaired) [SEQ ID NO: 9, Enterocin 96, reference compound] | 194 |
